- experimentalSystem: TAAR1 (Mus musculus (Mouse))
- Sequence (Q923Y8 whole entry): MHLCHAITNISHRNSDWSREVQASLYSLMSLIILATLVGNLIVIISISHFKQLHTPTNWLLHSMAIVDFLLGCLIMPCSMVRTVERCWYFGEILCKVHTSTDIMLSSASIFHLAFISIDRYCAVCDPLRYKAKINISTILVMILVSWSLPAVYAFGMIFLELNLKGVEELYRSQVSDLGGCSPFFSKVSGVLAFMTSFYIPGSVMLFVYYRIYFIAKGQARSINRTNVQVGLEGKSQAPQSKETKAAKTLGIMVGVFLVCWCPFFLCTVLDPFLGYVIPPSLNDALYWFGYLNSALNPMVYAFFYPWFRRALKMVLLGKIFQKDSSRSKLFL
propertyLabel: pKd
One number for each entry, as −log10 of the molar value.

**Query** Answer with the recorded pKd of c1ccc2c(c1)CCCC2C1=NCCN1 (racemic) only.
**Result** 7.22

====

- experimentalSystem: TAAR1 (Mus musculus (Mouse))
- experiment: Radioligand binding assay on TAAR1 (membranes of stably transfected HEK293 cells)
- protocolConditions: competition with [3H]-rac-2-(1,2,3,4-tetrahydro-1-naphthyl)-2-imidazoline, 4° C., 30 min
propertyLabel: Ki (µM)
Give bare numbers, in µM.

CC(C)(CC[C@H]1COC(N)=N1)c1ccc(F)cc1 ... 0.003
CCC(CC[C@H]1COC(N)=N1)c1cc(F)cc(F)c1 (some centres unmarked) ... 0.001
NC1=N[C@@H](CCCCc2ccccc2)CO1 ... 0.0015
C[C@@H](C[C@H]1COC(N)=N1)Oc1ccc(Oc2ccccc2)cc1 ... 0.0086
CC[C@@H](C[C@H]1COC(N)=N1)Oc1cccc(Cl)c1 ... 0.0012
C[C@@H](C[C@H]1COC(N)=N1)Oc1ccccc1 ... 0.0064

Hey, quick one: what's Ki for each of these?
1. NC1=N[C@@H](CCOc2ccccc2)CO1
2. NC1=N[C@@H](CCOc2cccc(C(=O)OCc3ccccc3)c2)CO1
3. NC1=N[C@@H](CCOc2ccc(Cl)c(Cl)c2)CO1

**Result**
1. 0.0017
2. 0.0004
3. 0.0003
